Values from PubChem BioAssay AID1159580

assay: chemical genetic growth profiling, strain panel (AID 1159580);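 also: tested at 20 µM; growth read once vehicle control cultures reached saturation at 30 °C; 1 = growth at the plate median or of vehicle wells; lower values mean less growth of the strain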; conditions: S. cerevisiae deletion strains, growth OD, locus YBL061C, strain skt5, hits give low values
Among all 5,500 compounds or so, about 2,000 (36%) were called active. Inconclusive results (about 18%) are left out. The list shows a part of the results.
PARAMETER_MEASURED: normalized growth

NC(=NCCCCCCN=C(N)N=C(N)Nc1ccc(Cl)cc1)N=C(N)Nc1ccc(Cl)cc1 = 0.058 (active)

In: Entry under review: `COc1ccc(-c2c(O)c3c(OC)c4c(cc3oc2=O)OC(C)(C)C=C4)cc1` . Reported normalized growth?
Out: 0.942 (inactive)

In: Please do the same for CC(C)C1CCC(C(=O)N[C@@H](Cc2ccccc2)C(=O)O)CC1 (some centres undefined) as well.
Out: 0.973 (inactive)

In: For CC(C)CCCC(C)N (centres undefined) then?
Out: 1.02 (inactive)

* * *

experiment: chemical genetic growth profiling, strain panel (AID 1159580); conditions: S. cerevisiae deletion strains, growth OD, locus YLR113W, strain HOG1, hits give low values
The whole screen tested about 5,500 compounds, of which about 2,000 (36%) were called active. Another 18% or so got no clear call; they are omitted. Some of the results follow.
PARAMETER_MEASURED: normalized growth
Write the number on its own, no unit after it.

In: What measured normalized growth goes with `CCCCCCCCCCCCCCCC(=O)OC[C@H](NC(=O)C(Cl)Cl)[C@H](O)c1ccc([N+](=O)[O-])cc1` ?
Out: 0.975

In: And then `COc1cc(O)c2c(c1)C(=O)c1cc(C)cc(O)c1C2=O` , what is it?
Out: 0.979

In: Try the compound CC(C)C1CCC(C(=O)N[C@@H](Cc2ccccc2)C(=O)O)CC1 (some centres undefined)
Out: 1.02

In: Thanks! And CC1CC(OC(=O)c2ccccc2O)CC(C)(C)C1 (centres undefined) ?
Out: 1

In: Now give it for `O=C(O)CCC(=O)OC[C@@H](NC(=O)C(Cl)Cl)[C@H](O)c1ccc([N+](=O)[O-])cc1` too.
Out: 0.973

In: Thanks! And `COc1ccc(OC)c2nc3c(nc12)C(=O)c1ccccc1-3` ?
Out: 0.899

In: What about this compound? `O=c1c(O)cccc2cc(O)c(O)c(O)c12`
Out: 0.51

In: Please do the same for CC1SC(c2cccnc2)N(c2ccc(F)cc2F)C1=O (centres undefined) as well.
Out: 0.957

In: Query `CC(C)[C@@H]1CC[C@@H](C)C[C@H]1OC(=O)c1ccccc1` next
Out: 1.02

* * *

Reported normalized growth values for the following compounds.
assay: chemical genetic growth profiling, strain panel (AID 1159580); details: S. cerevisiae deletion strains, growth OD, locus YHR079C, strain IRE1, hits give low values
Among all 5,500 compounds or so, about 2,000 (36%) were called active. About 18% were inconclusive and are not listed. This is one part of the list.
Returns: the value as a bare number; no unit string appended.

Reference set, count: 3
COc1ccc([C@@H](C)C(=O)c2ccc(O)cc2O)cc1 = 0.978
CN1CCN(C2=Nc3cc(Cl)ccc3Nc3ccccc32)CC1 = 1.03
Cc1ccc(O)c(C(CCN(C(C)C)C(C)C)c2ccccc2)c1 (configuration not stated) = 0.981

In: Request the reported normalized growth associated with Cc1cc2nc3c(=O)[nH]c(=O)nc-3n(CC(O)C(O)C(O)CO)c2cc1C (configuration not stated)
Out: 0.968

In: Subsequent entry: `O=c1c(O)c(-c2ccccc2)oc2cc(O)ccc12`
Out: 1.07

In: Request: `COc1ccc(CC(=O)c2ccc(O)cc2O)cc1`
Out: 0.959

* * *

experiment: chemical genetic growth profiling, strain panel (AID 1159580); details: S. cerevisiae deletion strains, growth OD, locus YHR079C, strain IRE1
The campaign covered roughly 5,500 compounds. About 2,000 (36%) were called active. Roughly 18% stayed inconclusive and do not appear here. Cut-off read from the data, not from the text of the source: active = normalized growth mostly below about 0.91 (no sharp cut-off); inconclusive = no clear call, values can overlap the other calls; inactive = mostly above about 0.92. The list shows a part of the results.
Respond using exactly one of the listed classes: 1 (yes) for active, 0 (no) for inactive

The examples below pair each entry with its known result.
CC[C@H]1OC(=O)[C@H](C)[C@@H](O[C@H]2C[C@@](C)(OC)[C@@H](O)[C@H](C)O2)[C@H](C)[C@@H](O[C@@H]2O[C@H](C)C[C@H](N(C)C)[C@H]2O)[C@](C)(O)C[C@@H](C)/C(=N/OCOCCOC)[C@H](C)[C@@H](O)[C@]1(C)O = 0 (no)
O=C1c2ccccc2C(=O)c2sccc21 = 1 (yes)
Cn1cnc2c1c(=O)[nH]c(=O)n2C = 0 (no)
CC1CC(OC(=O)c2ccccc2O)CC(C)(C)C1 (stereo unspecified) = 0 (no)
COc1cc(C2CC(=S)Nc3ccccc3S2)cc(OC)c1OC (stereo unspecified) = 0 (no)
O=[N+]([O-])c1ccc(Sc2ccccc2)c([N+](=O)[O-])c1 = 0 (no)
CC(C)N=C(N)N=C(N)Nc1ccc(Cl)cc1 = 0 (no)
NC(N)=NC(N)=NCCc1ccccc1 = 0 (no)
Cn1c(=O)c2c(ncn2CCO)n(C)c1=O = 0 (no)
C[C@H]1C(=O)CCC2[C@]3(C)CC[C@@]4(C)C5CC(C)(C)CC[C@]5(C)CC[C@]4(C)C3CC[C@@]21C (stereo partly specified) = 0 (no)

In: Call for entry `CCOC(=O)c1ccc(N=Cc2cc(Cl)cc(Cl)c2O)cc1` :
Out: 1 (yes)

In: // next record `CN1CCC[C@H]1c1cccnc1`
Out: 0 (no)

In: Similarly, `O=C(Nc1ccccc1Sc1ccc(C(F)(F)F)cc1[N+](=O)[O-])C(Cl)Cl` ?
Out: 0 (no)

In: COc1ccccc1OCC(O)COC(N)=O (stereo unspecified) ?
Out: 0 (no)

In: Now the compound `N[C@@H](C(=O)N[C@@H]1C(=O)N2C(C(=O)O)=C(Cl)CS[C@H]12)c1ccccc1`
Out: 0 (no)

In: Can you handle COc1cc2c(cc1OC)C(C)NCC2 (stereo unspecified) next?
Out: 0 (no)

* * *

assay: chemical genetic growth profiling, strain panel (AID 1159580);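 also: tested at 20 µM; growth read once vehicle control cultures reached saturation at 30 °C; 1 = growth at the plate median or of vehicle wells; lower values mean less growth of the strain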; details: S. cerevisiae deletion strains, growth OD, locus YNL175C, strain NOP13, hits give low values
Screen size: about 5,500 compounds; about 2,000 (36%) were called active. Another 18% or so got no clear call; they are omitted. The list shows a part of the results.
# normalized growth listing for each entry below
Enter the number alone.

COc1ccc(NC(=O)/C=C/c2ccc(Cl)cc2)cc1 = 0.966
c1ccc2nc(C3=NCCN3)ccc2c1 = 0.995
CC(C)(C)c1ccc(S(=O)(=O)/C=C/C#N)cc1 = 0.227
CNCCC(Oc1ccccc1OC)c1ccccc1 (stereo not given) = 1
Oc1ccccc1O = 1.02
NC(CCP(=O)(O)O)C(=O)O (stereo not given) = 1
COC1=C(OC)C(=O)c2ccccc2C1=O = 0.978
Cc1cc(O)c2c(c1)C(=O)c1cc(O)cc(O)c1C2=O = 0.732

In: Would you kindly share the measured normalized growth for Nc1nc(SCc2ccc([N+](=O)[O-])cc2)c2ncn([C@@H]3O[C@H](CO)[C@H](O)C3O)c2n1 (stereo not given in full) ?
Out: 0.996

In: Further, for CC(C)NC(C)Cc1ccc(I)cc1 (stereo not given) ?
Out: 1.01

In: Now try `NC(N)=NCc1cccc(I)c1` .
Out: 1.01

* * *

test: chemical genetic growth profiling, strain panel (AID 1159580);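 also: tested at 20 µM; growth read once vehicle control cultures reached saturation at 30 °C; 1 = growth at the plate median or of vehicle wells; lower values mean less growth of the strain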; details: S. cerevisiae deletion strains, growth OD, locus YIR030C, strain dcg1, hits give low values
Out of some 5,500 compounds screened, about 2,000 (36%) were called active. Roughly 18% stayed inconclusive and do not appear here. Some of the results follow.
PARAMETER_MEASURED: normalized growth
Response field accepts a number only; no unit should be typed.

Sample answers from the record:
O=C(N[C@@H](CO)[C@H](O)c1ccc([N+](=O)[O-])cc1)C(Cl)Cl = 1.01
O=C(c1ccccc1)c1ccc2n1CCC2C(=O)O (centres undefined) = 0.973
C[C@]12CC[C@@H](O)C[C@H]1CCc1ccccc12 = 1.01

In: Please look up its normalized growth: `N[C@@H](C(=O)N[C@@H]1C(=O)N2C(C(=O)O)=C(Cl)CS[C@H]12)c1ccccc1`
Out: 1.03

* * *

assay: chemical genetic growth profiling, strain panel (AID 1159580);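 also: tested at 20 µM; growth read once vehicle control cultures reached saturation at 30 °C; 1 = growth at the plate median or of vehicle wells; lower values mean less growth of the strain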; details: S. cerevisiae deletion strains, growth OD, locus YJL187C, strain SWE1 (second series), hits give low values
About 2,000 (36%) of roughly 5,500 compounds were called active. Not shown: some 18% with an inconclusive outcome. Some of the results follow.
PARAMETER_MEASURED: normalized growth
Write the number on its own, no unit after it.

COP(=O)(NC(C)=O)SC (stereo not drawn) = 1.01

In: Field request: normalized growth | item: C=C(C)C1Cc2c(ccc(C(=O)O)c2O)O1 (stereo not drawn)
Out: 1.02

In: Record: `CON`
Out: 1.01
